Data credit: PubChem BioAssay (NCI)

Assay Protocol: NCI Yeast Anticancer Drug Screen. Data for the rad50 strain (AID 155)
Applied Conditions: S. cerevisiae rad50 strain growth inhibition; at 5.0 µM (retest, dose inferred, filed as 0.5); stronger effect = higher value
Compounds without any hit were thinned out: in the full panel of roughly 79,000, 15% have a hit.
Threshold rule: growth inhibition greater than or equal to 10% is Yes; below that, No.

Compound	Assigned Label
Cc1cc(C(C)(CC(C)C)c2ccc(O)c(C)c2)ccc1O	Yes
O=C1SCCN1/N=C/c1ccc([N+](=O)[O-])o1	Yes
N#CCC1CC(=O)c2[nH]c3ccccc3c2C1 (centres undefined)	No
O=C1c2cc3c(cc2CC1Br)CCC3 (centres undefined)	Yes
COC(=O)c1nc(=S)[nH]c(C(=O)OC)c1C(=O)c1ccc2ccccc2c1	Yes
Oc1c(Br)c(Br)c(O)c(Br)c1Br	Yes
O=c1oc2cc(N=Cc3ccc4c(c3)OCO4)ccc2c2ccccc12	No
Nc1n[n+](-c2ccccc2)no1	Yes
CC1=NC(=Cc2ccc(Cl)cc2)C(=O)N1n1c(-c2ccccc2)nc2ccccc2c1=O	No
CN(C)CC/C(=N\Nc1ccc(Cl)cc1)c1ccccc1	Yes
CC(C)=Cc1cc2c(cc1O)CCC1C2CC[C@@]2(C)C1CC[C@@H]2O (some centres undefined)	Yes
C/C(=N\NC(=S)N1CCN(c2ccccn2)CC1)c1ccccn1	Yes
Cc1c2ccccc2c(C)c2c1ccc1ccccc12	Yes
O=C(O)CCC(=O)c1ccc(C2CCCC2)c2ccccc12	No
Cc1ccc(NC(=O)CSC(N)=O)cc1	No
C/C(=N\NC(=S)N1CCN(Cc2ccccc2)CC1)c1ccccn1	Yes
NC(N)=N/N=C/c1ccc([N+](=O)[O-])o1	Yes
Clc1ccc2nc3c(c(N4CCOCC4)c2c1)CCCC3	Yes
OC1(C2c3ccccc3-c3ccccc32)c2ccccc2-c2ccccc21	Yes
CCCCCCCCCCCCCCCCCC(=O)OCC(COC(=O)CCCN)OC(=O)CCCN (centres undefined)	Yes
CC(=O)OC1C(C)OC(OC(=O)C2CCC3C(C2)OC2(CC(OC(=O)/C=C/c4ccccc4)C(C)CO2)C32CO2)C(OC2OC(C)C(O)C(OC(C)=O)C2O)C1O (centres undefined)	Yes
CCN(CC)CCOC(=O)c1ccc(N=Nc2cc(Cl)c(C)cc2O)cc1	Yes
CSC(=S)N/N=C(\C)c1nccnc1C	No
CC(=Nc1ccc(N(C)C)cc1)c1ccccc1	No
Cc1ccc(C2SCc3nc4ccccc4n32)cc1 (centres undefined)	No
Nc1nc2nn(-c3ccc(C(=O)O)cc3)nc2c(=O)[nH]1	No
COC(=O)[C@@H]1c2cc3c(c(O)c2[C@@H](OC2OC(C)C(OC)C(C)(OC)C2OC)C[C@]1(C)O)C(=O)c1c(O)cc2c(c1C3=O)O[C@H]1O[C@]2(C)[C@H](O)[C@@H](N(C)C)[C@@H]1O (some centres undefined)	Yes
CCN(CC)Cc1cc(N=Nc2c(O)ccc3c(N=Nc4ccc(O)c(CN(CC)CC)c4)c(O)ccc23)ccc1O	Yes
C=C1CC(C)(COc2ccc3c(C)c(C)c(=O)oc3c2C)OC1=O (centres undefined)	Yes
CCN(CC)C(=S)N/N=C/c1cc([N+](=O)[O-])ccc1O	No
CCCCN(CCCC)CCCCNc1ccc(C)c2sc3ccccc3c(=O)c12	Yes
CN(C)/N=C(/CC(O)(C(F)(F)F)C(F)(F)F)c1ccc([N+](=O)[O-])cc1	Yes
COC(=O)CCC(NC(=S)N/N=C/c1ccccn1)C(=O)OC (centres undefined)	No
N=C(N)c1ccc(N=Nc2cc(/C=C/c3ccccc3)ccc2O)cc1	Yes
O=C(O)c1c2c(cc3c1CC1(Cc4cc5c(cc4C1=O)CCC5)C3)CCC2 (centres undefined)	Yes
CCCCN(CCCC)Cc1cc(Nc2c3ccc(Cl)cc3nc3ccc(OC)cc23)ccc1O	No
COC(=O)c1cccc2cccc(C(=O)Nc3ccc(Cl)cc3)c12	Yes
COc1cc(/C=C(/C)C[N+](=O)[O-])ccc1O	Yes
C=C1C(=O)OC2CC1C(O)C/C(C)=C/CC/C(C)=C/C(O)CC2C (centres undefined)	Yes
Cc1cc2cc3c(c(C(=O)O)c2o1)C(=O)c1ccc2ccccc2c1C3	Yes
O=c1[nH]c2ccccc2nc1CBr	No
O=C(CC(c1ccccc1Cl)C(C(=O)O)c1ccccc1)c1ccccc1 (centres undefined)	No
CN(C)C(=O)c1ccc(SC(=S)NCc2ccccc2)cc1	Yes
O=c1[nH]c(=S)[nH]c(-c2ccccc2)c1Cc1c(O)ccc2ccccc12	No
